Molecular target: SIRT1 (Homo sapiens)
Sequence (Q96EB6 1-747): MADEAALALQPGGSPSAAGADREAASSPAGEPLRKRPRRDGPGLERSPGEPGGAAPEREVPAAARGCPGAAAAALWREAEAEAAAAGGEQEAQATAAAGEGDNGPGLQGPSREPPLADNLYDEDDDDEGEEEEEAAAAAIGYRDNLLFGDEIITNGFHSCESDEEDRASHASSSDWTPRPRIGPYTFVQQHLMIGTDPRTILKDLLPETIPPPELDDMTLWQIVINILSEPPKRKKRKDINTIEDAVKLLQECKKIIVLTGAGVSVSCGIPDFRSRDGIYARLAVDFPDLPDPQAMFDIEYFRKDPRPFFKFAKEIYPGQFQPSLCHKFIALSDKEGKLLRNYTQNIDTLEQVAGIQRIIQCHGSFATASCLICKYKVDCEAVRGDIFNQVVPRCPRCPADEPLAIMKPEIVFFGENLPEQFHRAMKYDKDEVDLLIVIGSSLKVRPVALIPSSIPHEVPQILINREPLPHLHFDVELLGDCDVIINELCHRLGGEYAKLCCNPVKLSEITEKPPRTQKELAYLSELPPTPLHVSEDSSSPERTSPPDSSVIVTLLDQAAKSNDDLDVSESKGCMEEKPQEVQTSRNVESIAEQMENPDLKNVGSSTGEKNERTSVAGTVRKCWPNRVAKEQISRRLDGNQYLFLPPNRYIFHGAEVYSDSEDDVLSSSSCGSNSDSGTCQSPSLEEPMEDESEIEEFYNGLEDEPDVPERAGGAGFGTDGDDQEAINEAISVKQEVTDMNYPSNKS
Test: Trp mass spectrometry assay of SIRT1 activation
Type: biochemical
Settings: Trp peptide assay; EC1.5 = concentration that results in 150% activation of SIRT1
Value Type: TRP Activity (EC1.5)

Past entries and their recorded results:
Cc1cc(-c2ccc3c(n2)N(C(=O)Nc2cnccn2)[C@H]2CCCN3C2)ccn1    A (A (EC1.5<1 μM))
Cc1cc(-c2ccc3c(n2)N(C(=O)Nc2ccc4[nH]ncc4n2)[C@H]2CCN3C2)ccn1    A (A (EC1.5<1 μM))
Cn1ccc(-c2ccc3c(n2)N(C(=O)Nc2cnccn2)[C@H]2CCN3C2)n1    B (B (EC1.5 1-25 μM))
Cc1cc(-c2ccc3c(n2)N(C(=O)Nc2nc(C)c(C)s2)[C@H]2CCCN3C2)ccn1    A (A (EC1.5<1 μM))
O=C(c1ccc2c(n1)N(C(=O)Nc1ccccn1)[C@H]1CCN2C1)N1CCC(F)(F)C1    B (B (EC1.5 1-25 μM))
Cc1ccc(-c2ccc3c(n2)N(C(=O)Nc2nc4ccc(F)cc4s2)[C@H]2CCN3C2)cn1    B (B (EC1.5 1-25 μM))
O=C(Nc1ccccn1)N1c2nc(N3CCC[C@H]3C(F)(F)F)ccc2N2CCC[C@H]1C2    B (B (EC1.5 1-25 μM))
Cc1cc(-c2ccc3c(n2)N(C(=O)Nc2cnccn2)[C@H]2CCN3C2)cc(C(F)(F)F)n1    A (A (EC1.5<1 μM))

Read the next record carefully.
Incoming: Item Cc1cc(-c2ccc3c(n2)N(C(=O)Nc2cncc(C(C)C)n2)[C@H]2CCN3C2)ccn1 has what recorded TRP Activity (EC1.5)?
Outgoing: A (A (EC1.5<1 μM))
